- Test system: RXF 393 renal
- assay_notes: NCI tumour cell line growth inhibition, 48 h
The reader will find reported GI50 values listed item by item below.

compound: COC(=O)CCCNC(=O)C(=O)c1c(O)c(O)c(C(C)C)c2cc(C)c(-c3c(C)cc4c(C(C)C)c(O)c(O)c(C(=O)C(=O)NCCCC(=O)OC)c4c3O)c(O)c12
GI50: 0.651 µM

compound: CCC1(N)C(=O)OCc2c1cc1n(c2=O)Cc2cc3ccccc3nc2-1 (stereo not given)
GI50: 15.4 µM

compound: CC(C)=CCc1c(O)c(C(=O)CC(C)C)c(O)c2c(-c3ccccc3)cc(=O)oc12
GI50: 15.8 µM

compound: COc1ccc(-c2cc(-c3ccc(Cl)cc3)nc(SCCCCCCC(=O)NO)n2)cc1
GI50: 1.27 µM

compound: COc1cccc(NC(=O)c2ccc(NC3=C(Cl)C(=O)N(Cc4ccccc4)C3=O)cc2)c1
GI50: 2.09 µM
